Measured values drawn from PubChem BioAssay for this set.

Assay: COS7 lysate on small-molecule microarray, probe aHis, 635 nm (AID 1123);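 also: z-score combines 667nm fluorescence intensity with signal-to-noise per printed compound spot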
Settings: COS7 cell lysate, fluorescence, higher = more signal
Measured composite z-score, listed per entry for reference.

>  <COMPOUND>
CO[C@@H]1C=CCC(=O)N[C@@H](C)C(=O)OC[C@@H](OC)[C@H](C)C=CCC(=O)OC[C@H]1C

>  <composite z-score>
-1.2

$$$$
>  <COMPOUND>
COc1ccc(COC(=O)NN=C2C[C@@H](O)[C@@H](O)[C@@H]3[C@@H]4C(=O)N(C5CCCCC5)C(=O)[C@@H]4CC[C@@H]23)cc1

>  <composite z-score>
0.0678

$$$$
>  <COMPOUND>
C=CCOCC1CN2[C@@H](CC[C@@H](C)[C@@H]2c2ccc(Br)cc2)C(=O)O1 (some centres undefined)

>  <composite z-score>
-0.329

$$$$
>  <COMPOUND>
CC(C)[C@@H](OCc1ccccc1)[C@H](C)C=NOC[C@@H](O)[C@H]1O[C@@H]2OC(C)(C)O[C@@H]2[C@H]1O

>  <composite z-score>
0.223

$$$$
